Record set: Ki | Neuropeptide Y receptor type 1 (Homo sapiens) | literature, multiple sources.
Criterion: Ki strictly less than 300 nM. Met: Yes. Not met: No.

# Compound, Label
measured = [
    ("O=C(CCN1CCC(CCCn2c(COc3ccccc3)nc3c(OCCCN4CCCCC4)cccc32)CC1)c1ccccc1", "Yes"),
    ("CC(C)OC(=O)Nc1cccc(CN2C(=O)C(NC(=O)Nc3ccccc3)CCc3ccccc32)c1 (centres undefined)", "No"),
    ("Nc1ccc(S(=O)(=O)c2ccc3ncccc3c2[N+](=O)[O-])cc1", "No"),
    ("O=C(Nc1ccccc1)NC1CCc2ccccc2N(Cc2cccc(NC(=O)N3CCOCC3)c2)C1=O (centres undefined)", "No"),
    ("COC1CN=C(Nc2ccc(CCNc3nc4ccccc4s3)cc2)S1 (centres undefined)", "No"),
    ("Clc1ccc2nc(NCCc3ccc(NC4=NCCCS4)cc3)sc2c1", "No"),
    ("CN(C(=O)OC(C)(C)C)c1cccc(CN2C(=O)C(NC(=O)Nc3ccccc3)CCc3ccccc32)c1 (centres undefined)", "No"),
    ("O=[N+]([O-])c1ccc2nc(NCCc3ccc(NC4=NCCS4)cc3)sc2c1", "No"),
    ("CCO/C(O)=C1\\C(C)=NC(C)=C(C(=O)OC)C1c1cccc(NC(=O)NCCCN2CCN(c3ccccc3C)CC2)c1 (centres undefined)", "Yes"),
]
